Tested on: HPV31
Test: Inhibition of viral replication in cells that maintain HPV31 DNA, viral DNA quantified by real-time PCR
Type: cell-based, Human papilloma virus
Details: cells maintaining HPV31 cultured 72 hours with polyamide; vs DMSO control; highest dose tested 10 μM
observed property: pIC50
Scale note: pIC50 = -log10(concentration in M).

The cases that follow already have their pIC50 on record.
{"compound": "CN(C)CCCNC(=O)CCNC(=O)c1cc(NC(=O)CCNC(=O)c2cc(NC(=O)c3cc(NC(=O)c4cc(NC(=O)CCNC(=O)c5cc(NC(=O)c6cc(NC(=O)CCNC(=O)c7cc(NC(=O)[C@H](N)CCNC(=O)c8nc(NC(=O)c9cc(NC(=O)CCNC(=O)c%10cc(NC(=O)c%11cc(NC(=O)CCNC(=O)c%12cc(NC(=O)c%13cc(NC(=O)c%14cc(N=C(N(C)C)N(C)C)cn%14C)cn%13C)cn%12C)cn%11C)cn%10C)cn9C)cn8C)cn7C)cn6C)cn5C)cn4C)cn3C)cn2C)cn1C [NV1075]", "target or system": "HPV31", "observed property": "pIC50", "experimental value": 7.25}
{"compound": "CN(CCCN)CCCNC(=O)CCNC(=O)c1cc(NC(=O)CCNC(=O)c2cc(NC(=O)c3cc(NC(=O)c4cc(NC(=O)CCNC(=O)c5cc(NC(=O)c6cc(NC(=O)CCNC(=O)c7cc(NC(=O)CCCNC(=O)c8nc(NC(=O)c9cc(NC(=O)CCNC(=O)c%10cc(NC(=O)c%11cc(NC(=O)CCNC(=O)c%12cc(NC(=O)c%13cc(N=C(N(C)C)N(C)C)cn%13C)cn%12C)cn%11C)cn%10C)cn9C)cn8C)cn7C)cn6C)cn5C)cn4C)cn3C)cn2C)cn1C [NV1090]", "target or system": "HPV31", "observed property": "pIC50", "experimental value": 7.66}
{"compound": "CN(CCCN)CCCNC(=O)CCNC(=O)c1cc(NC(=O)CCNC(=O)c2cc(NC(=O)c3cc(NC(=O)c4cc(NC(=O)CCNC(=O)c5cc(NC(=O)c6cc(NC(=O)CCNC(=O)c7cc(NC(=O)[C@H](N)CCNC(=O)c8nc(NC(=O)c9cc(NC(=O)CCNC(=O)c%10cc(NC(=O)c%11cc(NC(=O)CCNC(=O)c%12cc(NC(=O)c%13cc(N=C(N(C)C)N(C)C)cn%13C)cn%12C)cn%11C)cn%10C)cn9C)cn8C)cn7C)cn6C)cn5C)cn4C)cn3C)cn2C)cn1C [NV1096]", "target or system": "HPV31", "observed property": "pIC50", "experimental value": 7.46}

Input line: # query: pIC50 of entry CN(C)CCCNC(=O)CCNC(=O)c1cc(NC(=O)CCNC(=O)c2cc(NC(=O)c3cc(NC(=O)c4cc(NC(=O)CCNC(=O)c5cc(NC(=O)c6cc(NC(=O)c7cc(NC(=O)[C@@H](CCNC(=O)c8cc(NC(=O)CCNC(=O)c9cc(NC(=O)c%10cc(NC(=O)CCNC(=O)c%11cc(NC(=O)c%12cc(NC(=O)c%13cc(N=C(N(C)C)N(C)C)cn%13C)cn%12C)cn%11C)cn%10C)cn9C)cn8C)NC(=O)NCCCN(C)C)cn7C)cn6C)cn5C)cn4C)cn3C)cn2C)cn1C [NV1079]
Output line: 7.43

Input line: Item CN(C)CCCNC(=O)CCNC(=O)c1cc(NC(=O)CCNC(=O)c2cc(NC(=O)c3cc(NC(=O)c4cc(NC(=O)CCNC(=O)c5cc(NC(=O)c6cc(NC(=O)c7cc(NC(=O)[C@H](N)CCNC(=O)c8cc(NC(=O)CCNC(=O)c9cc(NC(=O)c%10cc(NC(=O)CCNC(=O)c%11cc(NC(=O)c%12cc(NC(=O)c%13cc(N=C(N(C)C)N(C)C)cn%13C)cn%12C)cn%11C)cn%10C)cn9C)cn8C)cn7C)cn6C)cn5C)cn4C)cn3C)cn2C)cn1C [NV1077] has what recorded pIC50?
Output line: 7.49

Input line: Bench note: what pIC50 did CN(C)CCCNC(=O)CCNC(=O)c1cc(NC(=O)CCNC(=O)c2cc(NC(=O)c3cc(NC(=O)c4cc(NC(=O)CCNC(=O)c5cc(NC(=O)c6cc(NC(=O)CCNC(=O)c7cc(NC(=O)CCCNC(=O)c8nc(NC(=O)c9cc(NC(=O)CCNC(=O)c%10cc(NC(=O)c%11cc(NC(=O)CCNC(=O)c%12cc(NC(=O)c%13cc(NC(=O)c%14cc(N=C(N(C)C)N(C)C)cn%14C)cn%13C)cn%12C)cn%11C)cn%10C)cn9C)cn8C)cn7C)cn6C)cn5C)cn4C)cn3C)cn2C)cn1C [NV1088] show?
Output line: 7.85
